# experimental_target: T1, soluble human FcRn (shFcRn) (human, UniProt P55899 24-297; P61769 21-119)
# T1 construct: Biotinylated for the ELISA, amine-coupled to a CM5 chip for SPR; also called biotinylated shFcRn
# T1 sequence (P55899 24-297 limits assumed, chain 1 of 2): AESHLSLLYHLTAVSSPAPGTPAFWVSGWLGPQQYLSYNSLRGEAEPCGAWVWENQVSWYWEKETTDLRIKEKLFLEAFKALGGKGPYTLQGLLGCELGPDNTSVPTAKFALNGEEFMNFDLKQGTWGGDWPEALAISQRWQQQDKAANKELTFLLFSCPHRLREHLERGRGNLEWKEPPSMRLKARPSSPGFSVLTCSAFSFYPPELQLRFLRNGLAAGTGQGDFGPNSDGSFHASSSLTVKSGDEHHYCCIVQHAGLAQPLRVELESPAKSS
# T1 sequence (P61769 21-119 limits assumed, chain 2 of 2): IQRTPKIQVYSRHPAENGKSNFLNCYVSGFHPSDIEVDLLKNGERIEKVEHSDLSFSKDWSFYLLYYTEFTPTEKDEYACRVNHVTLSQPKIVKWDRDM
# experiment_description: IgG competition ELISA
Square brackets hold non-standard residues; d marks the D form. Ends that are not written are not given here.
measure_name: IC50 (µM)

>>> test_result("QRFVTGHFG[dP]LYPVNGP-NH2 [Peptide No. 167]")
93
